Below: a set of entries, each annotated with reported OD450.
- TESTED_TARGET: T1, human MSLN-R3 protein (human, UniProt Q13421 487-598)
- T1 construct: also called hMSLN-R3
- T1 sequence (Q13421 495-606, form in doubt): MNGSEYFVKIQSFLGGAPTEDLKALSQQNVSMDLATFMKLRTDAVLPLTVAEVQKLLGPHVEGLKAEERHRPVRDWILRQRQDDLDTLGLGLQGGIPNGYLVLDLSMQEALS
- PROTOCOL: ELISA on coated antigen, antibody 0.01 nM

BINDER	READOUT_UNITS	OD450
F7.44.20-VL-VH (scFv, not shown: small tags and cut ends, also called S009-F7.44.20 parental variable regions, VL-VH order) scFv: QIVLTQSPALMSASPGEKVTLTCSASSSVISSYLSWYQQKPGSSPKLLIYRTSNLASGVPARFSGSGSGTSYSLTISSMEAEDAASYFCHQWSSFPYTFGGGTKLEIKGGGGSGGGGSGGGGSEVQLQQSGPELVKPGASVKIPCKASGYTFTDYNMDWVKQSHGKSLEWIGDINPSTGGTIYNQKFNGKATLTEDKSASTVYMEFRSLTSDDTAVYYCARRRIGTGYFDVWGTGTTVTVSS	OD450	0.05
F7.44.20-H12 (scFv, not shown: small tags and cut ends, also called S009-F7.44.20 humanized antibody VH2 + VL4) scFv: EVQLVQSGAEVKKPGASVKVSCKASGYTFTDYNMDWVRQAPGQGLEWMGDINPSTGGTIYNQKFNGRVTMTEDKSASTVYMELSSLRSEDTAVYYCARRRIGTGYFDVWGQGTTVTVSSGGGGSGGGGSGGGGSEIVLTQSPATLSLSPGERATLSCSASSSVISSYLSWYQQKPGSSPRLLIYRTSNLASGIPARFSGSGSGTDYTLTISSLEPEDFAVYYCHQWSSFPYTFGGGTKVEIK	OD450	0.05
F7.44.20-H10 (scFv, not shown: small tags and cut ends, also called S009-F7.44.20 humanized antibody VH2 + VL2) scFv: EVQLVQSGAEVKKPGASVKVSCKASGYTFTDYNMDWVRQAPGQGLEWMGDINPSTGGTIYNQKFNGRVTMTEDKSASTVYMELSSLRSEDTAVYYCARRRIGTGYFDVWGQGTTVTVSSGGGGSGGGGSGGGGSEIVLTQSPDFQSVTPKEKVTITCSASSSVISSYLSWYQQKPDQSPKLLIYRTSNLASGVPSRFSGSGSGTDYTLTINSLEAEDAATYYCHQWSSFPYTFGGGTKVEIK	OD450	0.04
